# TEST_TARGET: T1, in-line fusion protein of human IL-36R extracellular domain and IL1RAcP extracellular domain expressed with … (human; mouse, UniProt Q9HB29 20-337; Q9NPH3 21-359, limits assumed)
# T1 construct: not shown: mouse IgG2a Fc
# T1 sequence (looked up): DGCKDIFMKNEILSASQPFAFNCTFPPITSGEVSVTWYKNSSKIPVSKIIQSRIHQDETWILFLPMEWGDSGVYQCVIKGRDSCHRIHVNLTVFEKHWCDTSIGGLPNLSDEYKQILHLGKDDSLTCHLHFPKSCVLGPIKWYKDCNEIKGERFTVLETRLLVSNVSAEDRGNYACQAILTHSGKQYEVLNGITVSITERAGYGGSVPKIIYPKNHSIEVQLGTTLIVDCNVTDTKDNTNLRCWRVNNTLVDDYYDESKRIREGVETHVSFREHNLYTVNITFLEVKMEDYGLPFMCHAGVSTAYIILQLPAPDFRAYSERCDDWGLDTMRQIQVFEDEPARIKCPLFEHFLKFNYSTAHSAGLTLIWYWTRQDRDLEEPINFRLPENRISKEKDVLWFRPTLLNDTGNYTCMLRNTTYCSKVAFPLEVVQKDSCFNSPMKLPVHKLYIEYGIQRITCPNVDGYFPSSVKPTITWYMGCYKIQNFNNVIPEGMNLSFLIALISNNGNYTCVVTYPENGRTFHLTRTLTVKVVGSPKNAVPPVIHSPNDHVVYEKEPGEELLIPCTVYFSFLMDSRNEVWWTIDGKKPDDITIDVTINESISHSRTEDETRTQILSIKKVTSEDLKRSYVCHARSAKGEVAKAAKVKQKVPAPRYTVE
# TEST: SPR Biacore 4000, mAb captured on anti-hFc, 37C
ENDPOINT_NAME: kon (M⁻¹ s⁻¹)

binder="H4H14709P (antibody, human IgG4 S228P, kappa, V domains shown, Fully human anti-IL-36R antibody) VH: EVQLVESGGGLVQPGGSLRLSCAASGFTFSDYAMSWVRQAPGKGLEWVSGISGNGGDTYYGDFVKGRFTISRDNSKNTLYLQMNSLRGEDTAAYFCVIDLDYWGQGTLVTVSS VL: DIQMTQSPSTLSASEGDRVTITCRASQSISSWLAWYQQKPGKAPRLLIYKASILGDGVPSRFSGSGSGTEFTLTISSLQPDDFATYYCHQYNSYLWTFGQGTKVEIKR" recorded_result=467000
binder="H4H14731P (antibody, human IgG4 S228P, kappa, V domains shown, Fully human anti-IL-36R antibody) VH: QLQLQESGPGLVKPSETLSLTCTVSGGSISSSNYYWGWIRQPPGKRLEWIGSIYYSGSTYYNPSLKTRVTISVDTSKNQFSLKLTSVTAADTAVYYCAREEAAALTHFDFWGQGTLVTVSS VL: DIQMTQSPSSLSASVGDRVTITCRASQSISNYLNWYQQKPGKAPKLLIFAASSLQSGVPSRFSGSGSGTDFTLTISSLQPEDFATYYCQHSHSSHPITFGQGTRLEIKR" recorded_result=52600

Values compiled from patent US20200017592A1.
